Study System: Fuc(a1-3)[Gal(b1-4)]GlcNAc(b1-2)Man
Protocol Description: glycan array binding signal (z-score within array); higher = stronger binding
Assay Context: glycan notation: IUPAC condensed, linker removed
The sample as a whole holds a higher share of the strongest signals than the screen did.
Could you please report measured glycan array binding signal (z-score) for the items listed next?
// keep it numeric: no unit symbol after the value

Look at this binder and give its reported glycan array binding signal (z-score). NPA (Narcissus pseudonarcissus), C0HM45 (protein) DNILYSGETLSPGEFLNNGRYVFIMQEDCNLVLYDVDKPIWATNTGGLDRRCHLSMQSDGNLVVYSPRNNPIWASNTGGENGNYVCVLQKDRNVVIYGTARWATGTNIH -0.131

Look at this binder and give its reported glycan array binding signal (z-score). SJA (Sophora japonica) (protein) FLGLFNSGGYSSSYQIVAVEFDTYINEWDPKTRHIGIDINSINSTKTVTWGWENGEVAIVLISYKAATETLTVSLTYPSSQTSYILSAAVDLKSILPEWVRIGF -0.248

Look at this binder and give its reported glycan array binding signal (z-score). DBA (Dolichos biflorus) (protein) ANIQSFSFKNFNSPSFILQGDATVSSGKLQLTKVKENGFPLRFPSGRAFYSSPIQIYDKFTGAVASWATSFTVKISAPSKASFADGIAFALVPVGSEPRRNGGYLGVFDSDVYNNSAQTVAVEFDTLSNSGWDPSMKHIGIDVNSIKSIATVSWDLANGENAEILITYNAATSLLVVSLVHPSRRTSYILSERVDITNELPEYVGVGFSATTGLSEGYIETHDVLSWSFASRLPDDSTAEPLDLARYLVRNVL -0.116

Look at this binder and give its reported glycan array binding signal (z-score). EUL D1A second (Oryza sativa) (protein) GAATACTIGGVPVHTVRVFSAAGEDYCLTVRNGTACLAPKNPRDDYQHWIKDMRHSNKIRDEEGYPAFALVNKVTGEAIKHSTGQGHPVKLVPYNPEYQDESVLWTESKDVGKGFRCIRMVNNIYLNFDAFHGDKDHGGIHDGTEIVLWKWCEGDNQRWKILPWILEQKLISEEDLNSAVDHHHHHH 0.112

Reference source: the supplement of paper PMC8728848
